The measurements presented in this section are drawn from patent US20240398805A1.

# GI50 annotations
test system: HCC827-YVMA cells (human ERBB2 exon20 insertion mutant A775_G776ins YVMA); experiment: Cell growth inhibition (CellTiter-Glo, 3 days) in HCC827-YVMA; assay type: cell-based; details: 72 h, 3 days after administration

// solved cases for GI50 follow
C=CC(=O)N1CCC(Nc2cc3c(Nc4ccc(Oc5ccnc(C6CCN(C)CC6)c5)cc4F)ncnc3cc2OC)CC1 [Example 186] = ≥ 1000 nM
C=CC(=O)N1CCC(Nc2cc3c(Nc4ccc(Oc5ccnc(N6CCC(O)CC6)c5)cc4F)ncnc3cc2OC)CC1 [Example 121] = < 30 nM
C=CC(=O)N1CCC(Nc2cc3c(Nc4ccc(Oc5ccnc(NC6CCC6)c5)cc4F)ncnc3cc2OC)CC1 [Compound 243] = < 30 nM
C=CC(=O)N1CCC(Nc2cc3c(Nc4ccc(Oc5ccnc(N6CC[C@@H](C#N)C6)c5)cc4F)ncnc3cc2OC)CC1 [Example 258] = < 30 nM

Inquiry: I'm curious: which GI50 was measured for C=CC(=O)N1CCC(Nc2cc3c(Nc4ccc(Oc5ccnc(N6CCN(C)CC6)c5)c(Cl)c4)ncnc3cc2OC)CC1 [Example 228] tested on HCC827-YVMA cells (human ERBB2 exon20 insertion mutant A775_G776ins YVMA)?
Reply text: 60 to 100 nM

Inquiry: Repeat with C=CC(=O)N1CCC(Nc2cc3c(Nc4ccc(Oc5ccnc(N(CCOC)CCOC)c5)cc4F)ncnc3cc2OC)CC1 [Example 117]
Reply text: 60 to 100 nM

Inquiry: Repeat with C=CC(=O)N1CCC(Nc2cc3c(Nc4ccc(Oc5ccnc(N6CC(NC(C)=O)C6)c5)cc4F)ncnc3cc2OC)CC1 [Example 145]
Reply text: ≥ 1000 nM

Inquiry: Repeat with C=CC(=O)N1CCC(Nc2cc3c(Nc4ccc(Oc5ccnc(NC6CCN(C)CC6)c5)cc4F)ncnc3cc2OC)CC1 [Example 184]
Reply text: ≥ 1000 nM

Inquiry: Repeat with C=CC(=O)N1CCC(Nc2cc3c(Nc4ccc(Oc5ccnc(N6CCC(F)(F)CC6)c5)cc4F)ncnc3cc2OC)CC1 [Example 218]
Reply text: 30 to 60 nM

Inquiry: Repeat with C=CC(=O)N1CCC(Nc2cc3c(Nc4ccc(Oc5ccnc(N6CC7(COC7)C6)c5)cc4F)ncnc3cc2OC)CC1 [Example 118]
Reply text: 30 to 60 nM
